biological target: YY1(mut5) (human, UniProt P25490 292-414, V324A;H325A;V326A;L340A;Q344A); experiment: MST
Sequence (P25490 292-414 V324A/H325A/V326A/L340A/Q344A): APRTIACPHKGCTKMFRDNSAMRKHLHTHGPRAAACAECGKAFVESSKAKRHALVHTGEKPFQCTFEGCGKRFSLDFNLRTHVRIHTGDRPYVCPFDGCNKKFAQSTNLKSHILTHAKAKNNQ
reported-endpoint: Kd (µM)
Unit µM implied. Number only.

Query: Kd; subject: AGGCGAUGGUGAGC (ssRNA) [m2 RNA] 31
